Test system: Escherichia coli TOP10
Experiment: shrunken log2 fold change of peptide-encoding DNA abundance (4.5 h post-induction vs induction); higher = less antimicrobial activity (less host growth inhibition)
Conditions: time post-induction: 4.5 h; library: site-saturation at positions 5, 18, 19, 20
Kindly return rule met if reported shrunken log2 fold change is no lower than -0.01; return rule not met if it is lower.

Below, 5 sequences whose answers are already recorded.
# residue_sequence, target_or_test_system, category_label
records = [
    ("RRIRERPPRLPRPRPRPIPKPRP", "Escherichia coli TOP10", "rule met"),
    ("RRIRPRPPRLPRPRPRPRLDPRP", "Escherichia coli TOP10", "rule met"),
    ("RRIRFRPPRLPRPRPRPMHDPRP", "Escherichia coli TOP10", "rule not met"),
    ("RRIRIRPPRLPRPRPRPEHVPRP", "Escherichia coli TOP10", "rule not met"),
    ("RRIRQRPPRLPRPRPRPCTQPRP", "Escherichia coli TOP10", "rule not met"),
]

(Q) I'd appreciate it if you could say whether RRIRARPPRLPRPRPRPHTFPRP has shrunken log2 fold change at least equal to -0.01.
(A) rule not met

(Q) Check RRIRSRPPRLPRPRPRPWPPPRP too.
(A) rule met

(Q) Now give it for RRIRVRPPRLPRPRPRPRHRPRP too.
(A) rule met

(Q) Try this sequence next: RRIRLRPPRLPRPRPRPSHMPRP
(A) rule not met

(Q) Repeat with RRIRERPPRLPRPRPRPLVSPRP
(A) rule not met

(Q) Also need RRIRQRPPRLPRPRPRPKCRPRP , thanks.
(A) rule not met

(Q) Next: RRIRRRPPRLPRPRPRPGKFPRP
(A) rule met

(Q) Same lookup for RRIRWRPPRLPRPRPRPKNNPRP , please.
(A) rule not met

====

Tested on: Escherichia coli TOP10
Experiment: shrunken log2 fold change of peptide-encoding DNA abundance (4.5 h post-induction vs induction); higher = less antimicrobial activity (less host growth inhibition)
Conditions: time post-induction: 4.5 h; library: site-saturation at positions 5, 18, 19, 20
# label = T if shrunken log2 fold change >= -0.2 else F

Check out these entries, answers already filled in.
# residue_sequence, category_label
rows = [
    ("RRIRIRPPRLPRPRPRPRSWPRP", "T"),
    ("RRIRERPPRLPRPRPRPTFMPRP", "T"),
    ("RRIRMRPPRLPRPRPRPTRSPRP", "T"),
]

(Q) Check the entry RRIRLRPPRLPRPRPRPTKQPRP : does shrunken log2 fold change equal or exceed -0.2?
(A) T

(Q) Can you handle RRIRTRPPRLPRPRPRPSDHPRP next?
(A) F

(Q) Same for RRIRVRPPRLPRPRPRPGQGPRP
(A) T

(Q) What about this sequence? RRIRMRPPRLPRPRPRPAHLPRP
(A) T

(Q) Same lookup for RRIRFRPPRLPRPRPRPCYPPRP , please.
(A) F

(Q) Can you check RRIRCRPPRLPRPRPRPADGPRP next?
(A) T

====

Tested on: Escherichia coli TOP10;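 further: peptides expressed intracellularly from a pBAD plasmid library in pooled LB shake-flask culture, induced with 0.3% L-arabinose, DNA abundance read by NGS, three biological replicates, DESeq2 with apeglm shrinkage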
Test: shrunken log2 fold change of peptide-encoding DNA abundance (4.5 h post-induction vs induction); higher = less antimicrobial activity (less host growth inhibition)
Conditions: time post-induction: 4.5 h; library: site-saturation at positions 5, 18, 19, 20
Class boundaries, taken from values of shrunken log2 fold change, are as follows: group A: < -0.2; group B: ≥ -0.2 and < 0.1; group C: ≥ 0.1

# residue_sequence, category_label
measured = [
    ("RRIRGRPPRLPRPRPRPQPDPRP", "group C"),
]

(Q) Which category does the recorded shrunken log2 fold change put RRIRNRPPRLPRPRPRPQHMPRP in?
(A) group A

(Q) Now this one: RRIRQRPPRLPRPRPRPMQRPRP
(A) group C

(Q) Then this sequence: RRIRLRPPRLPRPRPRPWCYPRP
(A) group A

(Q) // query: RRIRHRPPRLPRPRPRPSWYPRP
(A) group B

(Q) RRIRRRPPRLPRPRPRPSYLPRP ?
(A) group A

(Q) Consider next the sequence RRIRDRPPRLPRPRPRPDVTPRP in the same way.
(A) group C
